Examples of compounds with documented IC50 follow.
Molecular target: haematopoietic prostaglandin D synthase (H-PGDS) (Homo sapiens, UniProt O60760)
Construct: Full length human H-PGDS cDNA (Invitrogen Ultimate ORF 10H13026) was amplified by PCR; 6-His (N); TEV protease cleavage site (N); made in house; host or cells: E. coli BL21 (DE3*), vector pET22b+
Sequence (O60760 whole entry): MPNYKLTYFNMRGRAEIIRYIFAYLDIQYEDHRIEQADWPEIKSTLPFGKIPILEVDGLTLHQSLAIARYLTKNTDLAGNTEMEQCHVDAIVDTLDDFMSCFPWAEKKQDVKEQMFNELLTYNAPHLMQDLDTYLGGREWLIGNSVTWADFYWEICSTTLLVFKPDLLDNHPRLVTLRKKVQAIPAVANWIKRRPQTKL
Assay: H-PGDS RapidFire high throughput mass spectrometry assay (conversion of PGH2 to PGD2)
Format: biochemical
Conditions: 10 nM H-PGDS, PGH2 formed in situ by COX-2 from arachidonic acid; read-out: Potency Range (mean pIC50) (converted)

// solved cases for IC50 follow
[[record]]
compound = "Cc1nnc(NC(=O)N2CC(Oc3cccc4scnc34)C2)s1"
data_value = "10 to 79.4 nM"

[[record]]
compound = "O=C(Nc1ccc(N2CCOCC2)cc1)[C@H]1C[C@H](Oc2cccc3scnc23)C1"
data_value = "10 to 79.4 nM"

[[record]]
compound = "O=C(NC1CCCCC1)[C@H]1C[C@H](Oc2cccc3scnc23)C1"
data_value = "100 to 1000 nM"

[[record]]
compound = "O=C(N[C@H]1C[C@H](Nc2ncccn2)C1)[C@H]1C[C@H](Oc2cccc3scnc23)C1"
data_value = "100 to 1000 nM"


Recorded IC50 (compound O=C(NC1CCN(c2ncc(F)cn2)CC1)[C@H]1C[C@H](Oc2cc(F)cc3scnc23)C1 ): 10 to 79.4 nM

Recorded IC50 (compound O=C(NC1CN(c2ncccn2)C1)[C@H]1C[C@H](Oc2cc(F)cc3scnc23)C1 ): 10 to 79.4 nM

Recorded IC50 (compound O=C(O)c1csc(NC(=O)[C@H]2C[C@H](Oc3cccc4cccnc34)C2)n1 ): 10 to 79.4 nM

Recorded IC50 (compound CC(C)(O)[C@H]1CC[C@H](NC(=O)N2CC(Oc3cccc4cccnc34)C2)CC1 ): 10 to 79.4 nM

Recorded IC50 (compound CC(C)(O)[C@H]1CC[C@H](NC(=O)N2CC(Oc3cc(C(N)=O)cc4scnc34)C2)CC1 ): 10 to 79.4 nM

Recorded IC50 (compound O=C(Nc1nnc(C2CC2)s1)[C@H]1C[C@H](Oc2cccc3cccnc23)C1 ): 10 to 79.4 nM

Recorded IC50 (compound COc1ccc(F)cc1O[C@H]1C[C@H](C(=O)NC2CCN(c3cc(C#N)ccn3)CC2)C1 ): 10 to 79.4 nM
